Here the recorded folding stability dG is given for each entry.
B1: HEEH_KT_rd6_0007 (parent)
chain: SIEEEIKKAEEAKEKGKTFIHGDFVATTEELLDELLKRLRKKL

Variants of: B1
Test: folding stability dG (cDNA display proteolysis); higher = more stable
Settings: PBS, room temperature
The reply should contain only the number, in kcal/mol.

{"VARIANT CODE": "E34V", "folding stability dG [kcal/mol]": 0.952}
{"VARIANT CODE": "E29F", "folding stability dG [kcal/mol]": 1.47}
{"VARIANT CODE": "G16M", "folding stability dG [kcal/mol]": 0.701}

Now take the following variant into account.
Which folding stability dG is reported for this variant? G16W
1.3
